tested on: OVCAR-3 ovarian; experiment: NCI-60 one-dose screen, 48 h (100 = growth as untreated, 0 = no growth, -100 = all killed); settings: 10 µM
The panel holds about 83,000 compounds, 20% with a hit somewhere; the sample as a whole holds those more often.
Label rule, in plain words: growth of 50% and up is T, under 50% is F.

[
  {
    "Compound": "COc1cc(C2C(C#N)=C(c3c[nH]c4ccccc34)Nc3nc(N)[nH]c(=O)c32)cc(OC)c1OC (stereo not given)",
    "Label": "F"
  },
  {
    "Compound": "CCCCn1c(=O)[nH]c2c(c1=O)C(c1ccc(Cl)cc1)c1c([nH]c(=O)n(CCCC)c1=O)N2",
    "Label": "T"
  },
  {
    "Compound": "C=C[C@]1(C)C=C2C(=O)[C@@]3(O)OC(=O)[C@@]4(CCCC(C)(C)[C@H]34)[C@@]2(O)CC1",
    "Label": "F"
  },
  {
    "Compound": "CCn1nc(-c2ccc(C(=O)OC)cc2)nc2c(=O)n(C)c(=O)nc1-2",
    "Label": "F"
  },
  {
    "Compound": "Cc1ccc2oc(=O)cc(/C(=C3/C=CC=N3)c3ccc[nH]3)c2c1",
    "Label": "F"
  },
  {
    "Compound": "COc1cc(-c2nc3cc(Cl)c(Cl)cc3[nH]2)ccc1OCC(=O)NN",
    "Label": "T"
  },
  {
    "Compound": "COc1ccc2nc(-c3ccccc3)cc(C(C)=O)c2c1",
    "Label": "T"
  },
  {
    "Compound": "CCOC(=O)c1sc(NC(=O)c2cc(OC)c(OC)c(OC)c2)nc1C",
    "Label": "T"
  },
  {
    "Compound": "COc1cc(Cn2c(-c3ccccc3)c(Cl)c3c2-c2oncc2CC3)cc(OC)c1",
    "Label": "F"
  },
  {
    "Compound": "COc1ccc(-c2nnc(SC/C(=N\\O)c3ccccc3)o2)cc1",
    "Label": "T"
  },
  {
    "Compound": "COc1ccccc1S(=O)(=O)Nc1ccc2c(c1)CN(C)C(=O)N2",
    "Label": "F"
  },
  {
    "Compound": "CCN(CC)CCCOC(=O)Nc1ccccc1Cl",
    "Label": "T"
  },
  {
    "Compound": "CCOC(=O)C(=O)Cc1cccnn1",
    "Label": "T"
  },
  {
    "Compound": "CC(=O)/C(=C\\c1ccc(Cl)cc1)c1ccccc1",
    "Label": "F"
  },
  {
    "Compound": "CCCCC(CC#N)(CCC)CCC",
    "Label": "T"
  },
  {
    "Compound": "CCCCCCCCCCCCCCCCn1cc[n+](C)c1",
    "Label": "F"
  },
  {
    "Compound": "COC(=O)[C@]12CC[C@@H](C)[C@H](C)[C@@H]1C1=CC[C@@H]3[C@@]4(C)CC(=O)[C@H](O)[C@@](C)(CO)[C@@H]4C(=O)C[C@@]3(C)[C@]1(C)CC2",
    "Label": "F"
  },
  {
    "Compound": "O=c1ccc2nc(-c3ccccc3)nn(-c3ccccc3)c-2c1",
    "Label": "F"
  },
  {
    "Compound": "Nc1ncc(-c2ccc(C(F)(F)F)cc2)c(NC2CCCCCC2)n1",
    "Label": "F"
  },
  {
    "Compound": "COc1ccc(-c2nc(-c3ccccc3)c(-c3ccccc3)[nH]2)cc1OC1CCCC1",
    "Label": "T"
  },
  {
    "Compound": "C#CCn1c(-c2cccc(OCCCCl)c2)nc2c1c(=O)n(C)c(=O)n2C",
    "Label": "T"
  },
  {
    "Compound": "Nc1nc(SCC#CCCl)c2[nH]cnc2n1",
    "Label": "T"
  },
  {
    "Compound": "O=C(N/N=C\\c1cc(Cl)ccc1O)c1ccncc1",
    "Label": "F"
  },
  {
    "Compound": "CC(=O)c1c(O)cc2c3c1OC(C)(C)C1CCC(C)(CC31)O2 (stereo not given)",
    "Label": "T"
  },
  {
    "Compound": "Oc1cc(O)c(Br)cc1Br",
    "Label": "T"
  },
  {
    "Compound": "CCOC(=O)c1ccc(N(C=O)CCC(=O)CCl)cc1",
    "Label": "F"
  },
  {
    "Compound": "Cc1ccc(-c2cc(-c3cccc(Nc4ccnc5cc(Cl)ccc45)c3)nc3nc(N)[nH]c(=O)c23)cc1",
    "Label": "T"
  },
  {
    "Compound": "CN(C)c1ccc2c(c1)OC(N)=C(C#N)C2c1ccc2c(c1)CCCN2C (stereo not given)",
    "Label": "F"
  },
  {
    "Compound": "CCNC1(NC#N)CCCCC1",
    "Label": "T"
  },
  {
    "Compound": "COc1ccc(-c2nc(SCC(=O)c3ccc(Br)cc3)[nH]c(=O)c2C#N)cc1",
    "Label": "T"
  }
]
